# tgt: NMB receptor (Rattus norvegicus)
# Sequence (P24053 whole entry): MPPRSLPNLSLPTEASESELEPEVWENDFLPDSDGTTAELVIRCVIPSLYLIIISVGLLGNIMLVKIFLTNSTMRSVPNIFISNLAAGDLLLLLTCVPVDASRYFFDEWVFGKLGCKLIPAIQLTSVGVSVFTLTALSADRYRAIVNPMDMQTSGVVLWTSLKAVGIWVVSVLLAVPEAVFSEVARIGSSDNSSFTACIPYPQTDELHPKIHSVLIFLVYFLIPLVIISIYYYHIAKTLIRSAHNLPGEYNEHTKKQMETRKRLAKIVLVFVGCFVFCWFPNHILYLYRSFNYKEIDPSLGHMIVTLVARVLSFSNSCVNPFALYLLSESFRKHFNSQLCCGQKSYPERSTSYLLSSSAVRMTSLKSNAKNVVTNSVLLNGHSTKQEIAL
# assay procedure: [3H]inositol phosphates in NMB-R transfected cells (alone or NMB-stimulated)
# Assay type: cell-based
# Parameters: a full length NMB-preferring bombesin receptor clone generated from rat esophagus; expressed in transfected cells
# details: NMB-R transfected cells; analog 10 μM alone; control 13 ± 3
Where a SMILES comes first, the peptide text is derived from it. Bridges are numbered along the chain shown (N, C = ends). [ ]: non-standard residue; d: D form. 2Nal = N[C@@H](Cc1ccc2ccccc2c1)C(=O)O; d2Nal = N[C@H](Cc1ccc2ccccc2c1)C(=O)O; Lys(Et2) = CCN(CC)CCCC[C@H](N)C(=O)O; Lys(iPr) = CC(C)NCCCC[C@H](N)C(=O)O
attribute measured: [3H]IP, analog Alone (10 μM)

molecule: CC(C)NCCCC[C@@H]1NC(=O)[C@@H](Cc2c[nH]c3ccccc23)NC(=O)[C@H](Cc2ccc(O)cc2)NC(=O)[C@@H](NC(=O)[C@H](N)Cc2ccccc2)CSSC[C@@H](C(=O)N[C@@H](Cc2ccc3ccccc3c2)C(N)=O)NC(=O)[C@H]([C@@H](C)O)NC1=O [Analog #15] (H-[dF]CY[dW][Lys(iPr)]TC[2Nal]-NH2; disulfide 2-7)
[3H]IP, analog Alone (10 μM): 11 ± 1 dym × 10^3

molecule: C[C@@H](O)[C@@H]1NC(=O)[C@H](CCCCN)NC(=O)[C@@H](Cc2c[nH]c3ccccc23)NC(=O)[C@H](Cc2ccc(O)cc2)NC(=O)[C@@H](NC(=O)[C@H](N)Cc2ccccc2)CSSC[C@@H](C(=O)N[C@@H](Cc2ccc3ccccc3c2)C(N)=O)NC1=O [Analog #7] (H-[dF]CY[dW]KTC[2Nal]-NH2; disulfide 2-7)
[3H]IP, analog Alone (10 μM): 15 ± 1 dym × 10^3

molecule: NCCCC[C@@H]1NC(=O)[C@@H](Cc2c[nH]c3ccccc23)NC(=O)[C@H](Cc2ccc(O)cc2)NC(=O)[C@@H](NC(=O)[C@H](N)Cc2ccc3ccccc3c2)CSSC[C@@H](C(=O)N[C@@H](Cc2ccc3ccccc3c2)C(N)=O)NC(=O)[C@H](Cc2ccc3ccccc3c2)NC1=O [Analog #3] (H-[d2Nal]CY[dW]K[2Nal]C[2Nal]-NH2; disulfide 2-7)
[3H]IP, analog Alone (10 μM): 11 ± 1 dym × 10^3

molecule: CC(C)[C@@H]1NC(=O)[C@H](CCCCN)NC(=O)[C@@H](Cc2c[nH]c3ccccc23)NC(=O)[C@H](Cc2ccc(O)cc2)NC(=O)[C@@H](NC(=O)[C@H](N)Cc2ccc3ccccc3c2)CSSC[C@@H](C(=O)N[C@H](C(N)=O)[C@@H](C)O)NC1=O
[3H]IP, analog Alone (10 μM): 11 ± 2 dym × 10^3

Param item: CCN(CC)CCCC[C@@H]1NC(=O)[C@@H](Cc2c[nH]c3ccccc23)NC(=O)[C@H](Cc2ccc(O)cc2)NC(=O)[C@@H](NC(=O)[C@H](N)Cc2ccccc2)CSSC[C@@H](C(=O)N[C@@H](Cc2ccc3ccccc3c2)C(N)=O)NC(=O)[C@H]([C@@H](C)O)NC1=O [Analog #16] (H-[dF]CY[dW][Lys(Et2)]TC[2Nal]-NH2; disulfide 2-7) ; param system: NMB receptor (Rattus norvegicus); output [3H]IP, analog Alone (10 μM): 11 ± 2 dym × 10^3
